Biological target: rat GLP-1 receptor (rat) (UniProt P32301)
Sequence (P32301 22-463): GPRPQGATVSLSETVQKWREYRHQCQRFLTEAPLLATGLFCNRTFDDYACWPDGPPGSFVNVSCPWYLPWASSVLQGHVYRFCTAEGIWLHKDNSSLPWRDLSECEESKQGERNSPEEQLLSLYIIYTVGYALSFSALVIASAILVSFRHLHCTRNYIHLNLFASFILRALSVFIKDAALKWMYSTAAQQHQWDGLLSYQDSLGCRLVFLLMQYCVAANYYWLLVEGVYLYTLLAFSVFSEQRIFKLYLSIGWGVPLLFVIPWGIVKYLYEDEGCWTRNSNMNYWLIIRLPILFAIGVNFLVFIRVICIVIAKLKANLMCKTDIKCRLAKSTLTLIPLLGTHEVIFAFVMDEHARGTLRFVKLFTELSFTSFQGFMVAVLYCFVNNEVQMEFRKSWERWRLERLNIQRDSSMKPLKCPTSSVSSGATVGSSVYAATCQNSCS
Assay: cell-based or functional assay
Output satisfied for cAMP EC50 not less than 400 nM; output not satisfied otherwise.

Binder: IP392 (Fc fusion) YSEGTFISDYSIAMDKIHQQDFVNWLLAQKGAANDWKHNITQGGGGSGGGGSGGGGSGGGGSGGGGSGGGGSACPPC
Class assignment: satisfied
--
Binder: IP247 (Fc fusion) YSEGTFTSDYSKLLEKIHQQLFIEWLVKGPAAAGGSGSTASSGSGSATGGGGAATHTCPPCPAPEF
Class assignment: not satisfied
--
Binder: IP309 (Fc fusion) YSEGTFISDVSSYLERQAIDEFIAWLLKGGAAAGGSGSTASSGSGSATGGGGAATHTCPPC
Class assignment: not satisfied
--
Binder: IP330 (Fc fusion) YSEGTFTSDYSKLLERQAIDEFIALLLKGGGGGGGSGGGGSGGGGSGGGGSGGGGSGGGGSA
Class assignment: not satisfied
--
Binder: IP368 (Fc fusion) YSEGTFTSDYRQAIDRQAIDEFIAWLLKGGGGGGGSGGGGSGGGGSGGGGSACPPC
Class assignment: not satisfied
--
Binder: IP369 (Fc fusion) YSEGTFTSDYSKLLERQAIDEFIAHLLKGGGGGGGSGGGGSGGGGSGGGGSGGGGSGGGGSA
Class assignment: not satisfied
--
Binder: IP344 (Fc fusion) YSEGTFISDYSIAMDKIHQQDFVNWLLAQKGGGGGSGGGGSGGGGSGGGGSGGGGSA
Class assignment: satisfied
